# study_target: Neutrophil collagenase (Homo sapiens)
# Sequence (P22894 whole entry): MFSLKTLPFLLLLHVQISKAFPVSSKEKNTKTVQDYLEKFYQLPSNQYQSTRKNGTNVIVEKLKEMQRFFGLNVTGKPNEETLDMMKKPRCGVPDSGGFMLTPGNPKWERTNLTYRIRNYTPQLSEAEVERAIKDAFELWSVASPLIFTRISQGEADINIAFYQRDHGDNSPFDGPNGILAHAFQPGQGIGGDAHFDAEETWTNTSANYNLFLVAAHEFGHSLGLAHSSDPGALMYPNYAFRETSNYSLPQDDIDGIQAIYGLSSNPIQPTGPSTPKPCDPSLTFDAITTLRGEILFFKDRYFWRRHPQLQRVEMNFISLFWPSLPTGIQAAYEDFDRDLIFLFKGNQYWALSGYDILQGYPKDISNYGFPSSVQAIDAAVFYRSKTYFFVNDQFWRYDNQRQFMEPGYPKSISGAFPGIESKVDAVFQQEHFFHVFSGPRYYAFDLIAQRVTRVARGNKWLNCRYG
# test_method_notes: Inhibition of MMP8 using (7-methoxycoumarin-4-yl)acetyl-Pro-Leu-Gly-Leu-(3-(2,4-dinitrophenyl)-L-2,3-diaminopropionyl)Ala-Arg-NH2 as substrate incubated for 30 mins prior to substrate addition measured for 10 mins by fluorometry
reported_property: log10 of IC50 (log10 of the value in nM)
Hey, these are logged values: log10 of IC50, nM being the unit before logging.

Worked cases, log10 of IC50 given:
What value of measured log10 of IC50 is listed for COc1ccc(S(=O)(=O)N(Cc2cn(CCOCCOCCOCCF)nn2)[C@@H](C(=O)NO)C(C)C)cc1 ?
-1.40

Then COc1ccc(S(=O)(=O)N(Cc2ccc(OCCOCCOCCOCCOCc3cn(CCF)nn3)cc2)[C@@H](C(=O)NO)C(C)C)cc1 ?
-0.70

Then COc1ccc(S(=O)(=O)N(Cc2cn([C@@H]3O[C@H](CO)[C@@H](O)[C@H](O)[C@H]3F)nn2)[C@@H](C(=O)NO)C(C)C)cc1 ?
-0.30

Then COc1ccc(S(=O)(=O)N(Cc2ccc(OCCOCCOCCOCCn3cc(COCCOCCOCCOCCOCCF)nn3)cc2)[C@@H](C(=O)NO)C(C)C)cc1 ?
0.48

Then COc1ccc(S(=O)(=O)N(Cc2ccc(OCCOCCOCCOCCOCc3cn([C@@H]4O[C@H](CO)[C@@H](O)[C@H](O)[C@H]4F)nn3)cc2)[C@@H](C(=O)NO)C(C)C)cc1 ?
1.76

Now consider a different molecule.
What value of measured log10 of IC50 is listed for C#CCN([C@@H](C(=O)NO)C(C)C)S(=O)(=O)c1ccc(OC)cc1 ?
1.15
